# test_target: RSV prefusion F (preF), DS-Cav1 (Respiratory syncytial virus, UniProt P03420 26-513)
# protocol_text: BLI, IgG on anti-human IgG sensor, 100 nM antigen
pKd: −log10 of the molar value.
parameter_measured: pKd

ADI-41601 (antibody, V domains shown, also called Ab 875; Antibody Number 875) VH: EVQLLESGGGLVKPGGSLRLSCAGSGFRFSDYYMTWIRQAPGKGLEWVSYISSSSTYTYYTDSVKGRFTVSRDNAKNSLYLQMNTLRAEDTAIYYCAISNRYDSRTFYYDYWGQGTLVTVSS VL: QSVLTQPPSVSGAPGQRVIISCTGSSSNIGAGYDVHWYQQFPGTAPKLLIYGNNNRPSGVPERFSGSKSGTSASLAITGLQADDEADYYCQSYDSLSEVVFGGGTKVTVL ... 9.30
ADI-41703 (antibody, V domains shown, also called Ab 895; Antibody Number 895) VH: EVQLLESGSGLVKPLQTLSLTCAVSGGSISSGGYSWSWIRQPPGKGLEWIGYIYPSGSTYYNPSLKSRVTMSIDRSKNQFSLRLTSVTAADTAVYYCARGDGNDFWSADSSHAFAIWGQGTMVTVSS VL: EIVMTQSPGTLSLSPGERATLSCRASQIVGNSYLAWYQQKPGQAPRLLIYGASSRATGIPERFSGSGSGTDFTLTISRLEPEDFAVYHCQQYGSSPWTFGQGTKVEIK ... 8.38
ADI-36673 (antibody, V domains shown, also called Ab 830; Antibody Number 830) VH: QVQLVQSGGGLVKPGGSLRLSCAASGFTFRDFYMSWIRQAPGKGLEWVSNISPSSTYTNYADSVKGRFTISRDNAKNSLYLQMNSLRAEDTAVYYCVKSEGYSSGWYDYWGQGTLVTVSS VL: QPVLTQPPSVSGAPGQRVTISCTGSSSNIGAGYDVNWYHQLPGAAPKLLIYTNSNRPSGVPDRFSGSKSGTSASLAITGLQAEDEADYYCQSYDSSLSGYVFGTGTKLTVL ... 9.21
ADI-41555 (antibody, V domains shown) VH: EVQLVESGPGLVKPSQTLSLTCSVSGGSISSGIHYWSWIRQHPGKGLEWIGYIYYSGSTYYNPSLESRITISVDTSKNQFSLKVSSVTAADTAVYYCARVNRASRMTTFGVANERSIYYFMDVWGKGTTVTVSS VL: ETTLTQSPATLSLSPGERATLSCRATQSVGNYLAWYQQKPGQAPRLLIHDASNRATGIPARFSGSGSGTDFTLTISSLEPEDFAVYYCQLRINWLFTFGPGTKVEIK ... 8.24
ADI-41554 (antibody, V domains shown, also called Ab 836; Antibody Number 836) VH: EVQLVESGGGLVQPGGSLRLSCAASGFTFSSYPMNWVRQGPGKGLEWVSSISSSGASPYYADSVKGRFTISRDNSKNTLYLQMNSLRADDTAVYYCAREDYYYYYMDVWGKGTTVTVSS VL: ETTLTQSPSTLSASVGDRVTITCRASESISSWLAWYQQKPGKAPKLLIFKASTVQSGVPSRFSGSGSGTEFTLTISSLQPDDFATYYCQQYNSYLLTFGGGTKVEIK ... 8.87
ADI-41603 (antibody, V domains shown, also called Ab 877; Antibody Number 877) VH: EVQLVESGGGLVKPGRSLRLSCTTSGFTFGDYAMSWFRQAPGKGLEWVGFIRSKPYGGATAYAASVRGRFTISNDDSKSIAYLQMESLKIEDTAVYYCARDYDDFFFYDYWGQGTLVTVSS VL: DIRMTQSPATLSVSPGERATLSCRASENIYSNLAWYQQKPGQAPRLLIYGASTRATGLPARFSGSGSGTEFTLTISSLQSEDFAVYYCQQYNNWPAFGGGTKVEIK ... 8.46
ADI-41677 (antibody, V domains shown) VH: QVTLKESGPALVKPTQTLTLTCTFSGFSLSTSRMCVSWIRQPPGKALEWLARIDWDGDIYYSTSLRTRLTISKDTSKNQVVLTMTNMDPVDTATYYCARTSIYATGGYYLYYSDYWGQGTLVTVSS VL: EIVMTQSPSSLSASVGDRVTITCRASQSIASYVNWFQQKPGKAPKLLIYAASNVHSGVPSRFSGSGSGTGFTLTISSLQPEDSAIYYCQQSYTTPWTFGQGTKLEIK ... 8.89
ADI-41768 (antibody, V domains shown, also called Ab 900; Antibody Number 900) VH: EVQLVESGGGLVQPGRSLRLSCAASGFTFGDYAMHWVRQAPGKGLEWVSGITWNSGRVVYADSVKGRFTISRDNAKNSLYLQINSLRAEDTALYYCVKGSCNGGICYSADYWGQGTLVTVSS VL: NFMLTQPHSVSESPGKTVTISCTRSSGSIARNFVHWYQQRPGSSPTTVIYEDNQRPSGVPGRFSGSIDSSSNSASLTISGLRSEDEADYYCQSYDSDNWVFGGGTKLTVL ... 8.79
ADI-41787 (antibody, V domains shown) VH: EVQLLESGGGVVQPGRSLRLSCAASGFTFSSSGMHWVRQAPGKGLEWVAIISSDGSKHYYADSVKGRFTISRDNSKNTLYLEMNSLRAEDSAVYYCAREGVWSGFFVDTGTDFRHHGMDVWGQGTTVTVSS VL: SYELTQPPSVSVSPGQTARITCSGDALPKKFAFWYQQKSGQAPLLVIHEDNKRPSGIPERFSGSSSGTLATLTISGAQVEDEADYYCYSIDTSANLGVFGGGTKLTVL ... 8.81
ADI-41626 (antibody, V domains shown) VH: EVQLQESGPGLVKPSGTLSLTCAVAGGFISSGNWWSWIRQPPGKGLEWIGEVYHSGRTSYNPSLKSRVTISVDNSKNQFSLKMSSVTAADTAVYYCARVESYSSSGYYIAYFDNWGQGNLVTVSS VL: DIVLTQSPSSLSASVGDRVTITCRASQSISRYLSWYQQKPGKAPKLLIYAAFSLQTGVPSRFSGSGSGTDFTLTISSFQTEDSATYYCQQSYSAPVTFGGGTKVEIK ... 8.59

These data points were gathered from patent US20260258115A1.
